Please provide measured hAMY3R EC50 (cAMP) for the entries that follow.
Molecular target: T1, hAMY3R (human, UniProt P30988)
T1 sequence 1: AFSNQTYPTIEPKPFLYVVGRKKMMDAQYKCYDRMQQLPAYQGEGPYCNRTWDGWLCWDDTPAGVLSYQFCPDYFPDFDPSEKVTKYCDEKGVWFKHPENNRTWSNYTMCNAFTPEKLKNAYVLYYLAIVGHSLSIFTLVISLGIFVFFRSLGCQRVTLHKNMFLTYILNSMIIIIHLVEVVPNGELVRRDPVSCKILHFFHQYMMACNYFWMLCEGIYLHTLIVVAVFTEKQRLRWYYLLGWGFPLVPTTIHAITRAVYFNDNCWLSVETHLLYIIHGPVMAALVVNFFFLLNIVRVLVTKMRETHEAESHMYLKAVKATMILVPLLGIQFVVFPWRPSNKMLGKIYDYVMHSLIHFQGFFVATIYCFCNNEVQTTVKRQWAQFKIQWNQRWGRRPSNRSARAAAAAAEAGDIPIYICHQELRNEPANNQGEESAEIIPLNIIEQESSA
T1 sequence 2: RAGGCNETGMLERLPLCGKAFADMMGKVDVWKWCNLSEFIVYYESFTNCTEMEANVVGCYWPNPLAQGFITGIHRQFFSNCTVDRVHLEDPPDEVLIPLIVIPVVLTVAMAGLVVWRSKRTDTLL
Experiment: cell-based or functional assay
Numbered stars: 1 amine (or outer) side, 2 acyl side, 3 side chain; on linkers, the order of the positions; unused ones are H or OH. Bridge positions count the residues as written; N and C are the ends. Square brackets hold non-standard residues; d marks the D form. Side chains are listed from the residue outwards. Ends that are not written are not given here. * marks the point of attachment. C20 diacid = O=C(O)CCCCCCCCCCCCCCCCCCC(=O)*; γGlu = O=C(O)[C@H](CCC(=O)[*:2])N[*:1]; Hyp = O=C(O)[C@@H]1C[C@@H](O)CN1; Cit = NC(=O)NCCC[C@H](N)C(=O)O; AEEA = NCCOCCOCC(=O)O
# value in nM; strip the unit string

Problem: May I ask what hAMY3R EC50 (cAMP) has been recorded for KCNTATCTVQWLAHQIYQFTDKDKDNVAPPTNVGSNG[Hyp]-NH2 (disulfide 2-7 (inferred); ends not checked) [SEQ ID NO: 330] ?
Result: 0.008

Problem: Please look up its hAMY3R EC50 (cAMP): {C20 diacid-γGlu}-KCNTATCTVQRLAEQIYQFTDKDKDNVAPPTNVGSNG[Hyp]-NH2 (disulfide 2-7 (inferred); ends not checked) [SEQ ID NO: 51]
Result: 0.011

Problem: Recorded hAMY3R EC50 (cAMP) of KCNTATCTVQ[Cit]LAHQIYQFTDKDKDNVAPTNVGSNG[Hyp]-NH2 (disulfide 2-7 (inferred); ends not checked) [SEQ ID NO: 255] , please.
Result: 0.007

Problem: Consider the binder GCRTGTCTVQRLAHQIYQFTDKDKDNVAPRTKISPNG[Hyp]-NH2 (disulfide 2-7 (inferred); ends not checked) [SEQ ID NO: 197] and give its measured hAMY3R EC50 (cAMP).
Result: 0.12

Problem: Quick one: hAMY3R EC50 (cAMP) for GCRFGTCTVQRLAHQIYQFTDKDKDNVAPRTNVGPQGY [SEQ ID NO: 362] ?
Result: 0.007

Problem: Requested read-out: hAMY3R EC50 (cAMP). Entry: GCRTGTCTVQRLAHQIYQFTDKDKDNVAPRSKVSPNG[Hyp]-NH2 (disulfide 2-7 (inferred); ends not checked) [SEQ ID NO: 204]
Result: 0.129

Problem: Entry under review: GCRFGTCTVQRLAHFLYQFTDKDKDNVAPRTNVGSNTY [SEQ ID NO: 56] . Reported hAMY3R EC50 (cAMP)?
Result: 0.012

Problem: Consider the binder shown here: KCNTATCTVQ[Cit]LAHQIYQFTDKDADNVAPPTNVGSNG[Hyp]-NH2 (disulfide 2-7 (inferred); ends not checked) [SEQ ID NO: 250] What is its recorded hAMY3R EC50 (cAMP)?
Result: 0.011

Problem: Endpoint output: hAMY3R EC50 (cAMP) of {C20 diacid-γGlu}-KCNTATCTVARLAHQINQFTDKDKDNVAPPTNVGSNG[Hyp]-NH2 (disulfide 2-7 (inferred); not fully specified; ends not checked) [SEQ ID NO: 86] . Value?
Result: 0.015

Problem: Requested field: hAMY3R EC50 (cAMP). Item: GCRTGTCTVQRLAHQIYQFTNKDKDNVAPRSKISPQW[Hyp]-NH2 (disulfide 2-7 (inferred); ends not checked) [SEQ ID NO: 220]
Result: 0.182

Problem: Give the measured hAMY3R EC50 (cAMP) of GCRFGTCTVQWLAHQIYQFTDKDKDNVAPRTKISPNG[Hyp]-NH2 (disulfide 2-7 (inferred); ends not checked) [SEQ ID NO: 337] .
Result: 0.019

Problem: # input binder: {C20 diacid-γGlu}-KCNTATCTVQRLAEQIAQFTDKDKDPVAPPTNVGSNG[Hyp]-NH2 (disulfide 2-7 (inferred); ends not checked) [SEQ ID NO: 144] ; wanted: its hAMY3R EC50 (cAMP)
Result: 0.038

Problem: Consider the binder KCNTATCTVQRLAEQIYQFTDKDKDNK([AEEA-AEEA-γGlu-C20 diacid])APPTNVGSNG[Hyp]-NH2 (disulfide 2-7 (inferred); ends not checked) [SEQ ID NO: 12] and give its measured hAMY3R EC50 (cAMP).
Result: 0.007

Problem: // returns reported hAMY3R EC50 (cAMP) for input GCRTGTCTVQ[Cit]LAHQIYQFTDKDKDNVAPRTNVGPNGY-NH2 (disulfide 2-7 (inferred); ends not checked) [SEQ ID NO: 269]
Result: 0.005

Problem: I would be grateful if you could share the reported hAMY3R EC50 (cAMP) for KCNFATCATQRLANFLVQFTDKDKDNVAPRSKIGPQGY [SEQ ID NO: 363] .
Result: 0.01

Problem: Param item = GCRTGTCTVQWLAHQIYQFTDKDKDNVAPRTKIGPQG[Hyp]-NH2 (disulfide 2-7 (inferred); ends not checked) [SEQ ID NO: 357] ; retrieve measured hAMY3R EC50 (cAMP).
Result: 0.115

Problem: For the binder GCRFGTCTVQRLAHQIYQFTDKDKDNVAPRTNISPQGY [SEQ ID NO: 140] , what hAMY3R EC50 (cAMP) is on record?
Result: 0.036

Problem: I'd like to know its hAMY3R EC50 (cAMP). The binder in question is KCNTSTCTVAWLADQITQFSDKDKANVSPPTEVGPNS[Hyp]-NH2 (disulfide 2-7 (inferred); ends not checked) [SEQ ID NO: 310]
Result: 0.003
